Test system: 786-O
Experiment: NCI one-dose screening, renal cancer 786-O
Type: cell-based, human
Conditions: 10 μM
// values below are reported Growth Percent 786-0
Value and unit, in that order.

Examples with their reported Growth Percent 786-0 follow.
Cc1ccc(Sc2cc3c(c4nsnc24)C(=O)c2ccccc2C3=O)c(C)c1: 105.11%
CSc1ccc(Sc2cc3c(c4nsnc24)C(=O)c2ccccc2C3=O)cc1: 109.83%
O=C1c2ccccc2C(=O)c2c1cc(Sc1ccc(F)cc1F)c1nsnc21: 3.74%

Continue with the compound presented below.
**Query** Consider the compound O=C1c2ccccc2C(=O)c2c1cc(Sc1ccccc1Br)c1nsnc21 and give its measured Growth Percent 786-0.
**Result** −6.19%
